The reported measurements were obtained from ChEMBL document CHEMBL1156002.

# Test system: Rhodotorula mucilaginosa
# protocol-notes: Antifungal activity against Rhodotorula rubra DSM 70403 after 24 hrs by broth micro dilution method
# Format: functional
# measurement-setup: DSM 70403, 24 h
value-kind: MIC (µg/mL)
Provide only the numeric value, understood in µg/mL.

Noted for `O=C1CCSCCC(=O)Nc2nc(nc(-c3ccccc3)n2)NC(=O)CCSCCC(=O)Nc2nc(nc(-c3ccccc3)n2)N1` : its MIC reads 6.25

Noted for `O=C1CCSSCCC(=O)Nc2nc(nc(-c3ccccc3)n2)NC(=O)CCSSCCC(=O)Nc2nc(nc(-c3ccccc3)n2)N1` : its MIC reads 3.12

Noted for `O=C1CSSCC(=O)Nc2nc(nc(-c3ccccc3)n2)NC(=O)CSSCC(=O)Nc2nc(nc(-c3ccccc3)n2)N1` : its MIC reads 3.12

Noted for `O=C1CSCC(=O)Nc2nc(nc(-c3ccccc3)n2)NC(=O)CSCC(=O)Nc2nc(nc(-c3ccccc3)n2)N1` : its MIC reads 6.25
